Listed below: pIC50 values for each entry.
biological target: Proteasome Macropain subunit MB1 (Homo sapiens); test: Inhibition of chymotrypsin like activity of human 20S proteasome using Suc-Leu-Leu-Val-Tyr-AMC as substrate preincubated for 10 mins followed by substrate addition measured after 1 hr by spectrofluorimetric analysis; details: read-out: IC50
Sequence (P28074 whole entry): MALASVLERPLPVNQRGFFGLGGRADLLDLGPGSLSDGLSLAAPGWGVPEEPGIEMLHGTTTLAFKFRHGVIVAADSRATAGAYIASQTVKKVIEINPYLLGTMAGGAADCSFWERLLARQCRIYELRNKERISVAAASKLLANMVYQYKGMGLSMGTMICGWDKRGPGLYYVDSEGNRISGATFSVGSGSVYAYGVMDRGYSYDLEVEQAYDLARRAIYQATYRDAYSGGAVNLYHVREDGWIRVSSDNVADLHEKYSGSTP
pIC50: −log10 of the molar value.
Measured Parameter: pIC50

# Compound, Measured Parameter, Experimental Value
data = [
    ("CC(C)C[C@H](NC(=O)[C@H](Cc1ccccc1)NC(=O)[C@@H]1CCCc2ccccc21)B1OC2C[C@@H]3C[C@@H](C3(C)C)[C@]2(C)O1 (stereo partly specified)", "pIC50", 8.29),
    ("CC1(C)[C@@H]2CC3OB([C@H](Cc4ccccc4)NC(=O)[C@H](Cc4ccccc4)NC(=O)[C@H]4CCCc5ccccc54)O[C@@]3(C)[C@H]1C2 (stereo partly specified)", "pIC50", 8.28),
    ("O=C(N[C@@H](Cc1ccccc1)C(=O)N[C@@H](Cc1ccc(F)cc1)B(O)O)c1cnccn1", "pIC50", 8.36),
    ("CC(C)C[C@H](NC(=O)[C@H](CC(C)C)NC(=O)c1cccc2c1CCCC2)B1OC2C[C@@H]3C[C@@H](C3(C)C)[C@]2(C)O1 (stereo partly specified)", "pIC50", 8.94),
    ("CC1(C)[C@@H]2CC3OB([C@H](Cc4ccccc4)NC(=O)[C@H](Cc4ccccc4)NC(=O)C4CCc5ccccc5C4)O[C@@]3(C)[C@H]1C2 (stereo partly specified)", "pIC50", 8.47),
    ("CC(C)C[C@H](NC(=O)[C@@H](NC(=O)C1CCCc2ccccc21)C(C)C)B1OC2C[C@@H]3C[C@@H](C3(C)C)[C@]2(C)O1 (stereo partly specified)", "pIC50", 7.41),
]
